- target.system: CathepsinG, from human neutrophils (Homo sapiens, UniProt P08311)
- Sequence (P08311 21-244): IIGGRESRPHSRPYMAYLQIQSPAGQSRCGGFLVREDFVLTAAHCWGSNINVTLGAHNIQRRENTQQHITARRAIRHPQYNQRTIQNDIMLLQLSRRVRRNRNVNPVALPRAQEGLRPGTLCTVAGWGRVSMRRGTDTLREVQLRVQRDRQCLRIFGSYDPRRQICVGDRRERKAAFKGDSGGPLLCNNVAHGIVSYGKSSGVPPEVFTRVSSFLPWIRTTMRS
- test.summary: Enzymatic assay, cathepsin G
- cond: Cathepsin G IC50
Where a SMILES comes first, the peptide text is derived from it.
endpoint.label: IC50 (µM)
Supply the numeric figure in µM, leaving out any unit text.

Ask: # IC50 lookup, item CCCC[C@@H]1NC(=O)[C@@H]2CCCN2C(=O)[C@H]2CCCN2C(=O)[C@H]([C@@H](C)O)NC(=O)[C@@H]2CSSC[C@H](NC1=O)C(=O)N[C@@H]([C@@H](C)O)C(=O)N[C@@H](CCCCN)C(=O)N[C@@H](CO)C(=O)N[C@@H](CC(=O)O)C(=O)N1CCC[C@H]1C(=O)N1CCC[C@H]1C(=O)N[C@@H]([C@@H](C)CC)C(=O)N2 [Ex. 42] (HELM PEPTIDE1{[Nle].C.T.K.S.D.P.P.I.C.T.[dP].P}$PEPTIDE1,PEPTIDE1,2:R3-10:R3|PEPTIDE1,PEPTIDE1,1:R1-13:R2$$$V2.0)
Result: 0.046

Ask: Also CC[C@H](C)[C@@H]1NC(=O)[C@@H]2CCCN2C(=O)[C@@H]2CCCN2C(=O)[C@H](CC(=O)O)NC(=O)[C@H](CO)NC(=O)[C@H](CCCCN)NC(=O)[C@H]([C@@H](C)O)NC(=O)[C@@H]2CSSC[C@H](NC1=O)C(=O)N[C@@H](CO)C(=O)N[C@H](CC(N)=O)C(=O)N1CCC[C@H]1C(=O)N[C@@H](Cc1ccccc1)C(=O)N2 [Ex. 69] (HELM PEPTIDE1{C.S.[dN].P.F.C.T.K.S.D.P.P.I}$PEPTIDE1,PEPTIDE1,1:R3-6:R3|PEPTIDE1,PEPTIDE1,1:R1-13:R2$$$V2.0) , if possible.
Result: 0.068

Numbers sourced from patent US8658604B2.
